- STUDY_SYSTEM: Bcl-xL/Bim (Homo sapiens, UniProt Q07817)
- Sequence (Q07817 whole entry): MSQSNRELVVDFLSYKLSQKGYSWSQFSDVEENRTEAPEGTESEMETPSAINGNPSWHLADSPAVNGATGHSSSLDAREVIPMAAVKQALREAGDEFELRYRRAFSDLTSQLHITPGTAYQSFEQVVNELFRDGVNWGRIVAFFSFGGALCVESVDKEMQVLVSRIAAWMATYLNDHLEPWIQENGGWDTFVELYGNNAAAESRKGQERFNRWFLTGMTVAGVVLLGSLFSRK
- EXPERIMENTAL_DETAILS: ELISA, disruption of Bcl-xL binding to Bim
- PROTOCOL_CONDITIONS: ELISA; average ± SEM, n ≥ 3 (n = 2 where given); 10 nM GST-Bcl-xL, 40 nM biotinylated Bim BH3 peptide; read-out: Bcl-xL/Bim IC50
pIC50: −log10 of the molar value.
Below, each entry is listed alongside its reported pIC50.

| COMPOUND | LT_GT_EQ | pIC50 |
| --- | --- | --- |
| O=C(c1ccc(S(=O)(=O)Cc2ccccc2)cc1O)c1[nH]c(Cl)c(Cl)c1-n1c(C(=O)c2ccc(S(=O)(=O)Cc3ccccc3)cc2O)cc(Cl)c1Cl [Compound 7] | = | 4.16 |
| CCOC(=O)c1[nH]c(Cl)c(Cl)c1-n1c(C(=O)c2ccccc2O)cc(Cl)c1Cl [Compound 12] | = | 4.75 |
| O=C(c1ccccc1O)c1[nH]c(Cl)c(Cl)c1-n1c(C(=O)c2ccccc2O)cc(Cl)c1Cl [Compound 1, marinopyrrole A, reference compound] | = | 4.02 |
| CCOC(=O)CSc1ccc(C(=O)c2[nH]c(Cl)c(Cl)c2-n2c(C(=O)c3ccc(SCC(=O)OCC)cc3O)cc(Cl)c2Cl)c(O)c1 [Compound 3] | = | 5.92 |
| O=C(c1ccc(SCc2ccccc2)cc1O)c1[nH]c(Cl)c(Cl)c1-n1c(C(=O)c2ccc(SCc3ccccc3)cc2O)cc(Cl)c1Cl [Compound 4] | = | 6.22 |
| COc1ccc(CS(=O)(=O)c2ccc(C(=O)c3[nH]c(Cl)c(Cl)c3-n3c(C(=O)c4ccc(S(=O)(=O)Cc5ccc(OC)cc5)cc4O)cc(Cl)c3Cl)c(O)c2)cc1 [Compound 8] | < | 4.00 |
| O=C(O)CSc1ccc(C(=O)c2[nH]c(Cl)c(Cl)c2-n2c(C(=O)c3ccc(SCC(=O)O)cc3O)cc(Cl)c2Cl)c(O)c1 [Compound 9] | < | 4.00 |
